B1: HDV Ribozyme (parent)
chain: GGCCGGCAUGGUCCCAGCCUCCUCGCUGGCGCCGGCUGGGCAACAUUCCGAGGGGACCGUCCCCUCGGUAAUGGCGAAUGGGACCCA

# Variants of: B1
# Test: self-cleavage, relative activity (ratio to wild type); higher = more cleavage; co-transcriptional
Documented self-cleavage across a set of variants
Property name: self-cleavage

{"Variant": "C61U C64U", "Recorded value": 1.2}
{"Variant": "C44U C61U", "Recorded value": 0.716}
{"Variant": "C21U U23A", "Recorded value": 0.173}
{"Variant": "G1A U69A", "Recorded value": 0.145}
{"Variant": "U37G C66U", "Recorded value": 0.196}
{"Variant": "G10U U37A", "Recorded value": 0.058}
{"Variant": "G53U C85A", "Recorded value": 0.931}
{"Variant": "C24U C75U", "Recorded value": 0.197}
{"Variant": "C24U C85A", "Recorded value": 0.831}
{"Variant": "A42U A70U", "Recorded value": 0.312}
{"Variant": "C57U C86A", "Recorded value": 0.882}
{"Variant": "A56C C85U", "Recorded value": 1.01}
{"Variant": "C33G G35A", "Recorded value": 0.0604}
{"Variant": "G50C A77U", "Recorded value": 0.554}
{"Variant": "C22A U65C", "Recorded value": 0.446}
{"Variant": "A83C C84G", "Recorded value": 0.231}
{"Variant": "G1C U60G", "Recorded value": 0.0594}
{"Variant": "G11A U72G", "Recorded value": 0.0923}
{"Variant": "A43G G80C", "Recorded value": 0.208}
{"Variant": "C13G G38C", "Recorded value": 0.0504}
